Values from PubChem BioAssay AID2662

biological target: Histone-lysine N-methyltransferase 2A (Homo sapiens); experiment: qHTS Fluorescence Polarization Assay for Inhibitors of MLL CXXC domain - DNA interaction; conditions: MLL-CXXC / FITC-HOXA9 DNA fluorescence polarization; series mostly up to 115 µM
The campaign covered roughly 290,000 compounds. About 110 (0.038%) were called active. Roughly 3% stayed inconclusive and do not appear here. Many of the other results were omitted from the sample, so actives are more common in it than they were.
readout name: outcome

Cc1cc(C)cc(N(CCC#N)C(=O)CN2C(=O)NC3(CCCC3)C2=O)c1; inactive
Cc1c(CN2CCC(n3nccc3NC(=O)CCc3ccccc3)CC2)cnn1C; inactive
Cc1cc(C)n2nc(CNS(=O)(=O)c3c(F)c(F)c(F)c(F)c3F)nc2n1; inactive
COc1ccc(N(CC(=O)Nc2cc(OC)cc(OC)c2)S(=O)(=O)c2c(C)n[nH]c2C)cc1; inactive
CCOc1ccc(S(=O)(=O)N2CCCC(C(=O)N3CCC(C(N)=O)CC3)C2)cc1Cl (stereo not given); inactive
COc1ccc(C)cc1Nc1nc(C)nc2c1oc1ccccc12; inactive
CCOC(=O)C1CCN(S(=O)(=O)c2ccc3c(c2)N(C)C(=O)CC(=O)N3C)CC1; inactive
CCOc1ccccc1NC(=O)C1CCCN(S(=O)(=O)c2ccccc2)C1 (stereo not given); inactive
NC(=O)C1CCN(C(=O)/C(=C/c2ccco2)NC(=O)c2ccccc2)CC1; inactive

**Query** # lookup: outcome of Cc1ccc(-c2csc(N3CCN(c4cc5c(cc4Cl)nc(-c4ccncc4)n5CCOCCO)CC3)n2)cc1
**Result** inactive

----------
Biological target: Histone-lysine N-methyltransferase 2A (Homo sapiens) (UniProt Q03164)
Sequence (Q03164 whole entry, looked up, the tested form may be a part): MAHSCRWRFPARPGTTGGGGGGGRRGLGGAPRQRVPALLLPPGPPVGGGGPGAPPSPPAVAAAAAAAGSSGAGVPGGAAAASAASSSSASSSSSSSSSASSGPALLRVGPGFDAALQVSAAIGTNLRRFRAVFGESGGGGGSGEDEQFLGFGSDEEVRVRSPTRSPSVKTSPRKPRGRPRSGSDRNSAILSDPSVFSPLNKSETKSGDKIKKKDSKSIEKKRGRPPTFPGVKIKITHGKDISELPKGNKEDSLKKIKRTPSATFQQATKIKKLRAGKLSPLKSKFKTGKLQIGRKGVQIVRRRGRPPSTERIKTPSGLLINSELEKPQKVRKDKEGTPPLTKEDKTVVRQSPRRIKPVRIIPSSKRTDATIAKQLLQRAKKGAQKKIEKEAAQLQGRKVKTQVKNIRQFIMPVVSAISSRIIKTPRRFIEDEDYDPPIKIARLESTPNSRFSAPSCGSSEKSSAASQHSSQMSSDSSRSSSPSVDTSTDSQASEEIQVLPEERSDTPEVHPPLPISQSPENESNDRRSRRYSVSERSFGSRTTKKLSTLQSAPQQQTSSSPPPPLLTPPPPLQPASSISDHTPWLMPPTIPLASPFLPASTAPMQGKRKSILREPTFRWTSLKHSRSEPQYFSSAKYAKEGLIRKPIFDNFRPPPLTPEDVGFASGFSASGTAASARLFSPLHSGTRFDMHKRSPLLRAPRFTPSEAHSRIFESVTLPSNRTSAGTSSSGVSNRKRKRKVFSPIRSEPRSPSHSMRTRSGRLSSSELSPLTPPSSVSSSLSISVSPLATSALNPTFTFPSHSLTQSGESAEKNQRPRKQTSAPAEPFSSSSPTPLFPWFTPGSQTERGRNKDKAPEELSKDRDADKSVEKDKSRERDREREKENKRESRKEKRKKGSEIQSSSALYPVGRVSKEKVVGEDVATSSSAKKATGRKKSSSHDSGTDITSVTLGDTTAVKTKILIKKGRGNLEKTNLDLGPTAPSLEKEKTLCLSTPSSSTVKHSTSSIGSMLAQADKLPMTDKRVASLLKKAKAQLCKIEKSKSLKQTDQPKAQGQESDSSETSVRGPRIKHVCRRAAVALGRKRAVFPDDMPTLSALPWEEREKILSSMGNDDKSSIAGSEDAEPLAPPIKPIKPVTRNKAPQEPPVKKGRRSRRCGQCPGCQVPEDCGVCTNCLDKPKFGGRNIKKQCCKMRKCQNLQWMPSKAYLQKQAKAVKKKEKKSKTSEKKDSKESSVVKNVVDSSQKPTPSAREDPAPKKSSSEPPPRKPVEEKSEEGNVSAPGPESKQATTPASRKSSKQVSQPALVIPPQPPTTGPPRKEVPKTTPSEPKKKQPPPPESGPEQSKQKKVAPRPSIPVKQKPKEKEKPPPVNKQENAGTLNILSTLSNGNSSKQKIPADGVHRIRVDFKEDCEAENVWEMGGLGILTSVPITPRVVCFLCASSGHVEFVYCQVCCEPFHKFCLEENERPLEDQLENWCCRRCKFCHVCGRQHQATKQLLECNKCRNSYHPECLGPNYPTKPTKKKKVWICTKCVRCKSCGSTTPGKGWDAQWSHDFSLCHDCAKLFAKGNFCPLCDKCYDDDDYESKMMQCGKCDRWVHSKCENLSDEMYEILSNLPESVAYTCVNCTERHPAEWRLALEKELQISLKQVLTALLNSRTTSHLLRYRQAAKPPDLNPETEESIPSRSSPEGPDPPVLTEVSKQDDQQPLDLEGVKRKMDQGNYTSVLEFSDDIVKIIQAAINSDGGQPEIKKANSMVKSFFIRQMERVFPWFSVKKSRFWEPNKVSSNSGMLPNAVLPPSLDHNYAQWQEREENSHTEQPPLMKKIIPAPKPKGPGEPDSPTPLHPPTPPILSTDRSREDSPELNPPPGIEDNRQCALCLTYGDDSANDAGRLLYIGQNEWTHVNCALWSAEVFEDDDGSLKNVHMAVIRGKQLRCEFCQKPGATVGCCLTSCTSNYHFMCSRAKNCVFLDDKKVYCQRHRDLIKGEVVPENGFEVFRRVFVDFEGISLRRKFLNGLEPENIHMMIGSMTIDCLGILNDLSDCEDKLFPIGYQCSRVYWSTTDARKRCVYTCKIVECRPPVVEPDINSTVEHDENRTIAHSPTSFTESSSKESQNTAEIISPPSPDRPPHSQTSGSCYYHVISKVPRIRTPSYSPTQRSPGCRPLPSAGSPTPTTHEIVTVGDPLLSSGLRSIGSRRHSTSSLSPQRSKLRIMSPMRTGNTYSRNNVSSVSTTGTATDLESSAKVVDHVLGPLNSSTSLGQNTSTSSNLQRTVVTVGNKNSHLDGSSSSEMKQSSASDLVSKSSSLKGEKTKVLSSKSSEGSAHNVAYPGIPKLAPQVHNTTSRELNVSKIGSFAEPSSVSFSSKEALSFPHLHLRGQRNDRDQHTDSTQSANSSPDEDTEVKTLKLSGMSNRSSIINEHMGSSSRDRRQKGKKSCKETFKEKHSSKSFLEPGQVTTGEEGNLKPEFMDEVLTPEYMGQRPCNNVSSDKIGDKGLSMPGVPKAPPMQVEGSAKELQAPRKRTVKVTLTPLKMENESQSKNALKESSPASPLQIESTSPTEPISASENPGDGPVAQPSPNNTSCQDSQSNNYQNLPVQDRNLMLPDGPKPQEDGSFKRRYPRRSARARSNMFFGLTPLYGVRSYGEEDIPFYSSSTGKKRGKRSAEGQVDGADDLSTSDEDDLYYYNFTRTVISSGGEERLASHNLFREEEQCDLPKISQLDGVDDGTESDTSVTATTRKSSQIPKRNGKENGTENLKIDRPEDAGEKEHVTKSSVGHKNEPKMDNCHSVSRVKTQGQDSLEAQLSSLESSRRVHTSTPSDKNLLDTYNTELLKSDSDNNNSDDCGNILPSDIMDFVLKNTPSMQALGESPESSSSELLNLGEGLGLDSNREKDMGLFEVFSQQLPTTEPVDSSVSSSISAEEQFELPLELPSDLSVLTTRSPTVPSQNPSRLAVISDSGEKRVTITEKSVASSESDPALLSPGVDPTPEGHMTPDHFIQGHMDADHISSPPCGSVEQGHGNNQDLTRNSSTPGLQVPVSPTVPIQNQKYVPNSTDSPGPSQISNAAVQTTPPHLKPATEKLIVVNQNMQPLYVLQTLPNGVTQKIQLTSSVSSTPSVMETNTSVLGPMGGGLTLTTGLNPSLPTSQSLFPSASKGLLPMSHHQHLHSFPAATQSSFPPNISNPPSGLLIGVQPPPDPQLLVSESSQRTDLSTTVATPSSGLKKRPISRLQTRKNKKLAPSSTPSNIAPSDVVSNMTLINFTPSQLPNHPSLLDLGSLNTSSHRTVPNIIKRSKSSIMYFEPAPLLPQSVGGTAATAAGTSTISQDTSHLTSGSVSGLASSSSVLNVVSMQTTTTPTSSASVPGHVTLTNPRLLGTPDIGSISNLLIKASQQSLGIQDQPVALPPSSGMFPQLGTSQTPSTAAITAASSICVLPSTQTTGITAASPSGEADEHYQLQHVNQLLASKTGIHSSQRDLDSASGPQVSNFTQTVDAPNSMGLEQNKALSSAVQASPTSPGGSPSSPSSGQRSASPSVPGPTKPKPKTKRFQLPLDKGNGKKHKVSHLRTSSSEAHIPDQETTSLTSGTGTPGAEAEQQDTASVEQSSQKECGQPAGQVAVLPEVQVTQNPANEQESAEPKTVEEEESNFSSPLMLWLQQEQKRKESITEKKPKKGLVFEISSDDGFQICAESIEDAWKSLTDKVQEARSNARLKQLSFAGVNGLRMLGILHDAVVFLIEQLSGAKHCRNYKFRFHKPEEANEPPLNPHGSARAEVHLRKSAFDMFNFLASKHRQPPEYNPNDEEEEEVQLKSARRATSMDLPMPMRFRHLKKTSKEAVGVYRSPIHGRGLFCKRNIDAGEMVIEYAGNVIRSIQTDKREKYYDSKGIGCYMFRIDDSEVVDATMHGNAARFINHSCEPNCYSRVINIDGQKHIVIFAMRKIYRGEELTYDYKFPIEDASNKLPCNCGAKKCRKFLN
Assay: qHTS Fluorescence Polarization Assay for Inhibitors of MLL CXXC domain - DNA interaction
Conditions: MLL-CXXC / FITC-HOXA9 DNA fluorescence polarization; series mostly up to 115 µM
Description: NIH Chemical Genomics Center [NCGC] NIH Molecular Libraries Probe Production centers Network [MLPCN] […] The affinity purified MLL-CXXC domain, unlabeled HOX-A9 DNA strand, fluorescein (FLSN) labeled HOX-A9 DNA strand were kindly supplied by the laboratory of Dr. John Bushweller, University of Virginia. […] 7.Read using the Envision reader fluorescent polarization protocol.
In all, about 290,000 compounds went through this assay and about 110 (0.038%) were called active. About 3% were inconclusive and are not listed. Calls come from the whole dose curve; as a rule, active = well fitted inhibition curve with a large enough effect in the polarisation, with a control signal flat (not every such curve was filed as active); inconclusive = small, poorly fitted or top-dose-only effect, or effect the other way, or a change in a side signal; inactive = no such curve, though single readings can be large or run the other way; the % refers to the polarisation. What follows is part of a selection rich in actives, with near analogues and random picks from the rest.
Write down the outcome that applies. Available outcomes: active, inactive

# count of solved cases: 10
COCCC(=O)N1CCC(Oc2ccc(C(=O)NCc3ccon3)cc2)CC1; inactive
CC(=O)c1ccc(OCC(O)CN2CCN(S(=O)(=O)c3cccc(Br)c3)CC2)cc1 (stereo unspecified); inactive
CN(C(=O)c1ccccc1)c1nccnc1C#N; inactive
COc1ccc(NC(=O)CC2C(=O)NC3CCCCC3N2C(=O)c2ccc(F)cc2)cc1 (stereo unspecified); inactive
Cc1ccc(CN(C)Cc2cc(=O)oc3cc(C)c(Cl)cc23)cc1; inactive
CCN1C(=NCC(C)C)N[C@@H](CCc2ccccc2)[C@H](C(=O)NCC(C)C)[C@H]1C; inactive
O=C(CN1CCC(NC(=O)C2CC2)CC1)Nc1ccccc1[N+](=O)[O-]; inactive
COc1ccc(S(=O)(=O)/N=C2\C=C(NS(=O)(=O)c3ccccc3)C(=O)c3ccccc32)cc1; active
Cc1cc(C)nc(N/N=C/c2c(CO)cnc(C)c2O)n1; inactive
COc1ccccc1CCNC(=O)c1c(C)nn(CC(C)C)c1Cl; inactive

Turning to the following molecule.
**Query** Status in this test for CC(=O)N[C@@H](C)C(=O)N1CCC(n2nccc2NC(=O)CCCc2ccccc2)CC1 ?
**Result** inactive
